experiment: Cytotoxicity in HepG2 cells (intracellular ATP, ATPlite, 48 h); format: cell-based, human; conditions: human, HepG2 cells; IC50 per ratio column head; unit inferred; read-out: Cytotoxicity in HepG2
observation.type: IC50 at 48 h (µM)
Reply with just the number (in µM).

Input CN1CCN(CCCCNc2c3ccccc3nc3ccccc23)CC1 [TCMDC-137479] . Output IC50 at 48 h: 3.39

Given item Cc1[nH]c2ccccc2c1C(=O)C(C)Sc1nnc(-c2ccccc2Br)[nH]1 (centres unmarked) [TCMDC-125114] , the value recorded as its IC50 at 48 h is 49.3

----------
system: P. falciparum stage V gametocytes; test: microbe, parasite or virus in culture; set-up: BacTiter-Glo ATP luminescence viability of purified stage V gametocytes in 384-well plates, per cent inhibition versus DMSO; details: Plasmodium falciparum, 48 h, read-out: % Inhibition
Returns the class for an entry based on its inhibition at 5 µM. Class ranges: bottom end (below -40%), midrange (-40% to below 60%), top end (60% or more)

### Prompt Could you tell me which band COc1ccc2ccccc2c1C=NNc1cc(C)nc2cc(C(F)(F)F)ccc12 belongs to?
### Response midrange

### Prompt GET /class?item= COc1ccc2c(NN=CC=Cc3ccccc3)ccnc2c1
### Response midrange

### Prompt Which bin should I file C=CCN1Cc2c(O)cccc2C(c2ccc(O)c(O)c2)C1 (stereo not drawn) under?
### Response bottom end

### Prompt Place this compound in its band: Cc1ccc2c(c1[N+](=O)[O-])N=NCC2Oc1ccccc1 (stereo not drawn)
### Response midrange

### Prompt Using the reported inhibition at 5 µM, which band applies to Cc1cc(N/N=C/c2ccc([N+](=O)[O-])cc2)c2ccc(F)cc2n1 ?
### Response top end

### Prompt Hey, which category is COc1cccc2c(N/N=C/c3ccc([N+](=O)[O-])cc3)ccnc12 in, do you know?
### Response top end

### Prompt Classify this compound: Cc1cc(NN=Cc2ccc(F)cc2)c2ccc(C(F)(F)F)cc2n1
### Response bottom end

### Prompt // bin(item) where item = COc1ccc2nccc(NN=Cc3ccccc3)c2c1
### Response midrange

### Prompt Form field 'band' for COc1ccc(C=NNc2cc(C)nc3ccc(C)cc23)c2ccccc12
### Response top end

----------
system: P. falciparum NF54 gametocytes fed to An. stephensi mosquitoes; test: Standard membrane feeding assay (SMFA); assay type: in vivo, Plasmodium falciparum; conditions: gametocytes treated 48 h at the IC90; Fig 7
Is % Prevalence of infection at least 3%? Then Yes. If not, No.

### Prompt Identify whether the reported % Prevalence of infection of the following compound is 3% or greater: Cc1[nH]c2ccccc2c1C(=O)C(C)Sc1nnc(-c2ccccc2Br)[nH]1 (stereo not drawn)
### Response No

### Prompt Is it the case that N=C(NCCCc1ccccc1)c1cccc(C(=N)NCCCc2ccccc2)n1 has % Prevalence of infection reaching or exceeding 3%?
### Response Yes

### Prompt Assess whether reported % Prevalence of infection for CNC(=S)NN=C(C)c1ccccn1 sits at 3% or higher.
### Response No

### Prompt Given Cc1c(Cl)cccc1NC(=S)NN=Cc1ccccn1 , state whether its % Prevalence of infection is at least 3%.
### Response No

----------
assay: Cytotoxicity in HepG2 cells (intracellular ATP, ATPlite, 48 h); format: cell-based, human; conditions: human, HepG2 cells; IC50 per ratio column head; unit inferred; read-out: Cytotoxicity in HepG2
observation.type: IC50 at 48 h (µM)
// note: answer is a bare numeric in µM

Value of measured IC50 at 48 h for the entry Fc1ccc2[nH]c(-c3cccc(-c4ccc(CNCCN5CCNCC5)cc4)c3)nc2c1 : 24.2

For record FC(F)c1nc2ccccc2n1-c1nc(N2CCOCC2)nc(N2CCOCC2)n1 the listed IC50 at 48 h is 1.58

Record N=C(NCC1CC1c1ccccc1)c1cccc(C(=N)NCC2CC2c2ccccc2)n1 (stereo not drawn) , field IC50 at 48 h: 6.8

Item: CCc1ccc(CN2CCC(CNC(=O)c3cc(-c4cccc(F)c4)cs3)C2)cc1 (stereo not drawn) | IC50 at 48 h: 7.22

// Cc1cccnc1Nc1nc(-c2ccccn2)cs1 : IC50 at 48 h value = 3.02

IC50 at 48 h reading for Cc1n[nH]c2ccc(-c3ccc4nccc(N5CCC(N)CC5)c4c3)cc12 : 11.7

Measured IC50 at 48 h of Fc1ccc2[nH]c(-c3cccc(-c4cccc(CNCCN5CCNCC5)c4)c3)nc2c1 : 19.6

Record Cc1cccc2nc(-c3cccc(-c4cccc(CNCCN5CCNCC5)c4)c3)[nH]c12 , field IC50 at 48 h: 7.76

Quick note, IC50 at 48 h for COc1ccc2nc(-c3ccccc3)cc(NCCCNc3cc(-c4ccccc4)nc4ccc(OC)cc34)c2c1.Cl landed at 5.5

Item: Cc1cccc2nc(-c3ccc(-c4cccc(CN5CCC(CCN6CCCCC6)CC5)c4)s3)[nH]c12.O=C(O)C(F)(F)F | IC50 at 48 h: 3.87

Consider FC(F)(F)c1ccc2[nH]c(-c3cccc(-c4ccc(CNCCN5CCNCC5)cc4)c3)nc2c1 . Its measured IC50 at 48 h is 12.6

Just so you know, measured IC50 at 48 h for Nc1cc(C=Cc2ccc([N+](=O)[O-])o2)nc2ccccc12 came out at 11.7

GET /value?item= CC(C)CCNC(=O)c1cnc2c(O)cccc2c1Nc1cccc(NC(=O)c2ccc(F)cc2)c1.O=C(O)C(F)(F)F &field=IC50 at 48 h returns 5.27

GET /value?item= Fc1ccc2[nH]c(-c3ccc(-c4ccc(CN5CCC(CCN6CCCCC6)CC5)cc4)cc3)nc2c1 &field=IC50 at 48 h returns 5.3

Value of IC50 at 48 h reported for the compound CC(C)CNCc1cccc(-c2cccc(CN(CCN(C)C)C(=O)Nc3ccccc3)c2)c1 is 15.8

Lab note: c1cc(CNCCN2CCNCC2)cc(-c2cccc(-c3nc4ccccc4[nH]3)c2)c1 gave IC50 at 48 h of 19.3

Form: compound = S=C(NN=Cc1ccccn1)Nc1ccc(Cl)c(Cl)c1 ; IC50 at 48 h = 9.1

The compound listed as Cl.c1ccc2c(Nc3ccc(Cc4ccc(Nc5c6ccccc6nc6ccccc56)cc4)cc3)c3ccccc3nc2c1 shows IC50 at 48 h equal to 4.49

Just so you know, measured IC50 at 48 h for COc1ccc2nc3cc(Cl)ccc3c(NCCCCNc3c4ccc(Cl)cc4nc4ccc(OC)cc34)c2c1 came out at 14.5

Item: CN(C)CCCNc1nccc(N(C)c2ccc(NC(=O)Nc3cc(C(F)(F)F)ccc3F)cc2)n1 | IC50 at 48 h: 17.3

Sure, the documented IC50 at 48 h for CN(C)CCNC(=O)c1ccc(-c2cnc3ccc(NCc4ccc(Cl)c(Cl)c4)nn23)cc1 is 16.7

The compound Fc1ccc(NC(=S)NN=Cc2ccccn2)cc1 showed IC50 at 48 h equal to 23.4

IC50 at 48 h reading for CCCCCCCCN1CCN(CCCCCCNc2c3ccccc3nc3ccccc23)CC1 : 3.1
